Biological target: T1, human vascular endothelial growth factor receptor-2 Fc chimera (KDR-Fc) (human, UniProt P35968 20-764)
T1 construct: range 1-764; also called human VEGFR-2; hKDR; not shown: human IgG1 Fc
T1 sequence (P35968 20-764 limits assumed, change not shown, form in doubt): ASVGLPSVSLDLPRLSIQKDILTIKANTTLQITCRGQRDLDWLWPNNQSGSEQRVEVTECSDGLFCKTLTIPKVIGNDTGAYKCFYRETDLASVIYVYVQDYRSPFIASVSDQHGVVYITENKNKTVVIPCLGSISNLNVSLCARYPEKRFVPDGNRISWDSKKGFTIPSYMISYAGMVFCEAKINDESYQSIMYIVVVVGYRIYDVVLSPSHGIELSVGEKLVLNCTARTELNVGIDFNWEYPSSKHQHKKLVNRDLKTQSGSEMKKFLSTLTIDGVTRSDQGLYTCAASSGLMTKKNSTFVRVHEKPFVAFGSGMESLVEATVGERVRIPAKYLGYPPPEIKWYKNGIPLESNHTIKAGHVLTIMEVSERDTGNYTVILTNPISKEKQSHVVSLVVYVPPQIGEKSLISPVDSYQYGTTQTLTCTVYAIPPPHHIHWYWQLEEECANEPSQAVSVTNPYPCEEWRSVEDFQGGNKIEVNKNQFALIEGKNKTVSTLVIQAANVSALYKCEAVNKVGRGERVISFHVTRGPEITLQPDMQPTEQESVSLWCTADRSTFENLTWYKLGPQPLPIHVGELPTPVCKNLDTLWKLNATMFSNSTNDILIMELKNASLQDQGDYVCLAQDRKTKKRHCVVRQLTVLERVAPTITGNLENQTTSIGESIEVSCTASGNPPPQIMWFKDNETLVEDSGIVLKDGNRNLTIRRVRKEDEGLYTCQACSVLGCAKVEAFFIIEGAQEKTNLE
Assay: binding to 1 nM KDR-Fc, % of input; radioactive equilibrium binding (assay not given)
Protocol: To prepare ³⁵S-labeled binding proteins for analysis, mRNA was prepared as described above for RNA-protein fusion production but the linker ligation step was omitted. […] 50 μA of the reaction mixture and elution were dried onto a LumaPlate-96 (Packard) and the amount of ³⁵S on the plate was measured using a TopCount NXT instrument (Packard). […] Data was analyzed using the GraphPad Prizm software (GraphPad Software, Inc, San Diego, Calif.), fitted using a one site, non-linear binding equation.
Field: Binding to 1 nM KDR, %. Provide a value for each of the binders that follow.
Numbers only, in %.

binder	test_value
K13 (designed binder, Del 1-8 10Fn3 clone; Flag tag of the assay form not included) EVVAATPTSLLISWRHPHFPTRYYRITYGETGGNSPVQEFTVPLQPPTATISGLKPGVDYTITGYAVTLALKGHELLTPISINYRT	17
E17 (designed binder, Del 1-8 10Fn3 clone; Flag tag of the radioactive-assay form not included) EVVAATPTSLLISWRHPHFPTRYYRITYGETGGNSPVQEFTVPLQPPTATISGLKPGVDYTITGYAVTVEENGRVLNTPISINYRT	32

Lab note: next binder to report on.
Dear colleague, I am looking for the recorded Binding to 1 nM KDR, % of the following binder: E12 (designed binder, Del 1-8 10Fn3 clone; Flag tag of the radioactive-assay form not included) EVVAATPTSLLISWRHPHFPTRYYRITYGETGGNSPVQEFTVPLQPPTATISGLKPGVDYTITGYAVTFARDGHEILTPISINYRT
36
